Hello, the source for this data is patent US12590070B2, in case you need it.

target: FAK (Homo sapiens)
run-description: FAK [pY397] ELISA in BT-549 cells
Assay type: cell-based
Design: endogenous in cells; host or cells: MDA-MB-231
conditions-used: cell line BT-549; read-out: FAK inhibitory activity (IC50)
quantity-kind: pIC50
By convention, pIC50 is the negative base-10 log of a molar concentration.

Entry CNC(=O)c1cccc(C)c1Nc1nc(Nc2ccc(N3CCN([C@H]4C5CC6CC4C[C@](O)(C6)C5)CC3)cc2OC)ncc1C(F)(F)F [Compound 4] : reported pIC50 = ? 7.31

====

target: FAK (Homo sapiens, UniProt Q05397)
Sequence (Q05397 whole entry): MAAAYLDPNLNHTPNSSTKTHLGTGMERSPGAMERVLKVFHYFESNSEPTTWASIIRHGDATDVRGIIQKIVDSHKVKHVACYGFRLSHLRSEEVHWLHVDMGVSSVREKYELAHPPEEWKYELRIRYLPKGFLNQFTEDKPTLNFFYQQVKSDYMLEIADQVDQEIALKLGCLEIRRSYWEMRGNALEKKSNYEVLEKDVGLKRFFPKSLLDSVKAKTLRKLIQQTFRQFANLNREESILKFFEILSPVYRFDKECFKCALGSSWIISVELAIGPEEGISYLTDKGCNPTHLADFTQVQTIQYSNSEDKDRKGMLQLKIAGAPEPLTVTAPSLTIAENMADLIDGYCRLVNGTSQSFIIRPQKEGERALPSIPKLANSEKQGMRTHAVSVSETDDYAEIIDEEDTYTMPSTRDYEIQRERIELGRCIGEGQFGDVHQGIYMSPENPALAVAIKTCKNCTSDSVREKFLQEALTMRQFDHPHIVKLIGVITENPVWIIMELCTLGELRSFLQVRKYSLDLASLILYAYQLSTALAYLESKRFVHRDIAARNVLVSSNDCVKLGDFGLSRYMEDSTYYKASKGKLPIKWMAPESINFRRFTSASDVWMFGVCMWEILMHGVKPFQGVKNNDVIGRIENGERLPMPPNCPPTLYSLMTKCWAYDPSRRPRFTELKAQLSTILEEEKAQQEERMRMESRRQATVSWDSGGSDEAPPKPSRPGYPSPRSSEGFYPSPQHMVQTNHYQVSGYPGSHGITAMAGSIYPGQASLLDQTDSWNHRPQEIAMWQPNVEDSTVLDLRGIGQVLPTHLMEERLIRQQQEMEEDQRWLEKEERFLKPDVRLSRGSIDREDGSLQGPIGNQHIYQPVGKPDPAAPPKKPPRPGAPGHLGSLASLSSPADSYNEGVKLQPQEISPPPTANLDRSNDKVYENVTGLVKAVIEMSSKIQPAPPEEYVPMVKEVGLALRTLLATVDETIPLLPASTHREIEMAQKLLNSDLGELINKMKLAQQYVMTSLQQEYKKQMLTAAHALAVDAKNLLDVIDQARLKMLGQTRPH
run-description: FAK [pY397] ELISA in HCC70 cells
Type: cell-based
Design: endogenous in cells; host or cells: MDA-MB-231
conditions-used: cell line HCC70; read-out: FAK inhibitory activity (IC50)
quantity-kind: IC50 (nM)
# value in nM; strip the unit string

Please tell me: IC50 of CNC(=O)c1cccc(C)c1Nc1nc(Nc2ccc(N3CCN([C@H]4C5CC6CC4C[C@](O)(C6)C5)CC3)cc2OC)ncc1C(F)(F)F , system FAK (Homo sapiens, UniProt Q05397)? 59
